Source listed as patent US10597388B2.

system: barnyardgrass (Echinochloa crus-galli); test: Test A greenhouse herbicide test, pre- and postemergence; format: in vivo; conditions: Postemergence, 125 g ai/ha; 0 to 100 scale, 0 no effect, 100 complete control
Plant response rating, Barnyardgrass overview
quantity name: Plant response rating, Barnyardgrass

Cc1nn(C)c(=O)c(-c2ccc(Cl)c3ccccc23)c1OS(=O)(=O)C(F)(F)F [Compound 158]
10
Cc1cc(C)c2sc(C)c(-c3c(OC(=O)N4CCOCC4)c(C)nn(C)c3=O)c2c1 [Compound 174]
0
Cc1nn(C)c(=O)c(-c2c([N+](=O)[O-])ccc3ccccc23)c1OC(=O)C1CC1 [Compound 167]
20
Cc1n[nH]c(=O)c(-c2cccc3ccccc23)c1OCC(F)F [Compound 173]
0
